Tested on: AncSZ;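 also: 11-residue human phosphosite peptides and single-mutation variants displayed on the E. coli surface, counted by deep sequencing, each peptide's frequency after selection divided by its frequency in the unselected input library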;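 also: frequency after pTyr selection over input frequency; kinase dosed for 20-30% of maximal phosphorylation in three min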
Assay: phosphorylation enrichment, bacterial display (enrichment ratio); higher = better substrate or ligand; peptides without Tyr show the background
Returns 1.0 if the recorded phosphorylation enrichment is greater than or equal to 0.9, and 0.0 otherwise.

For orientation, consider the following solved cases.
# item_sequence, category
rows = [
    ("LHSEAYLKYNE [PBRM1_Y1610_I1614N]", 0.0),
    ("QDTSRYTVCNL [BIRC3_Y245_S248C]", 0.0),
    ("IVFTSYVLTIL [TAS2R16_Y239_F240V]", 1.0),
    ("LSDGPYSNSYE [EPOR_Y485_P488S]", 1.0),
    ("SIVEDYRPPFY [ACVRL1_Y421_G416S]", 1.0),
]

# input Reported phosphorylation enrichment at or above 0.9? ETAENYLGFTA [HSPA9_Y181_H184Y_YF]
# output 1.0
